Each recorded value in this set is attributed to ChEMBL document CHEMBL1126169.

# Test System: UniProt P47745
# Sequence (P47745 whole entry): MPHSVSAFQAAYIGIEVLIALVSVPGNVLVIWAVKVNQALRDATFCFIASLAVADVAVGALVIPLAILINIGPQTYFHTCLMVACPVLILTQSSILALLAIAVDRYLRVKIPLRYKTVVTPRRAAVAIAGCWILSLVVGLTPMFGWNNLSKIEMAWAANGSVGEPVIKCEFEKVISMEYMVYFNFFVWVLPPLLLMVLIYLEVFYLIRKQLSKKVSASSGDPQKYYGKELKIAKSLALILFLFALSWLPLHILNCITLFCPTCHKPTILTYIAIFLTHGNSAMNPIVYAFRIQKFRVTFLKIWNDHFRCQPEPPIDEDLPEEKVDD
# Protocol: Inhibition of N6-[3H]cyclohexyladenosine binding to guinea pig forebrain membrane Adenosine A1 receptor
Listed here: items and their measured pKi.
Quick note: pKi values are minus log10 of concentrations in mol/L.

> print(dat)
                                   molecule  measured.number
1  CC[C@@H](C)Nc1ncnc2c1ncn2[C@@H]1O[C@H](CO)[C@@H](O)[C@H]1O             8.89
2  OC[C@H]1O[C@@H](n2cnc3c(NC4CC5CCC4C5)ncnc32)[C@H](O)[C@@H]1O (stereo not given in full)             9.15
3  CCC(C)(C)Nc1ncnc2c1ncn2C1O[C@H](CO)[C@@H](O)[C@H]1O (stereo not given in full)             7.80
4  CCCn1c(=O)[nH]c(=O)c2[nH]c(C34CC5CC(CC3C5)C4)nc21             6.43

Next molecule, please.
Enquiry: Give the measured pKi for CCCn1c(=O)c2nc(C3CC4CCC3C4)[nH]c2n(CCC)c1=O (stereo not given)
Return: 8.36
